# Tested on: Danio rerio larvae (5 dpf)
# Assay Summary: difference in excitability vs DMSO (percentage points); higher = more excitable than DMSO
# Experimental Context: 10 µM; exposure time 6 h
Structures can show the parent of a compound that is named as a salt.
Please mark True if the recorded difference in excitability is equal to or greater than 7, and False if it falls below.

{"Compound": "NC(=O)Cc1cccc(C(=O)c2ccccc2)c1N", "System Tested": "Danio rerio larvae (5 dpf)", "Label Class": "True"}
{"Compound": "CCOc1ccccc1OCCN[C@H](C)Cc1ccc(OC)c(S(N)(=O)=O)c1 [Tamsulosin (hydrochloride)]", "System Tested": "Danio rerio larvae (5 dpf)", "Label Class": "True"}
{"Compound": "C[C@@H]1NC(=O)[C@@H](N)CNC(=O)[C@H](C2CCNC(=N)N2)NC(=O)/C(=C/NC(N)=O)NC(=O)[C@H](CNC(=O)CC(N)CCCN)NC1=O.N=C1NCC[C@H]([C@@H]2NC(=O)/C(=C/NC(N)=O)NC(=O)[C@H](CNC(=O)C[C@@H](N)CCCN)NC(=O)[C@H](CO)NC(=O)[C@@H](N)CNC2=O)N1 [Capreomycin (sulfate)]", "System Tested": "Danio rerio larvae (5 dpf)", "Label Class": "True"}
{"Compound": "COc1cccc(N2CCN(C3=Nc4c(F)cccc4[C@H](CC(=O)O)N3c3cc(C(F)(F)F)ccc3OC)CC2)c1", "System Tested": "Danio rerio larvae (5 dpf)", "Label Class": "True"}
{"Compound": "CC(=O)O[C@]1(C(C)=O)CC[C@H]2[C@@H]3CCC4=CC(=O)CCC4=C3[C@@H](c3ccc(N(C)C)cc3)C[C@@]21C [Ulipristal Acetate]", "System Tested": "Danio rerio larvae (5 dpf)", "Label Class": "False"}
{"Compound": "CCCc1nc2c(C)cc(-c3nc4ccccc4n3C)cc2n1Cc1ccc(-c2ccccc2C(=O)O)cc1", "System Tested": "Danio rerio larvae (5 dpf)", "Label Class": "True"}
{"Compound": "Nc1nc(Cl)nc2c1ncn2[C@H]1C[C@H](O)[C@@H](CO)O1", "System Tested": "Danio rerio larvae (5 dpf)", "Label Class": "False"}
{"Compound": "CN(C)C(=O)c1cc2cnc(Nc3ccc(N4CCNCC4)cn3)nc2n1C1CCCC1", "System Tested": "Danio rerio larvae (5 dpf)", "Label Class": "True"}
{"Compound": "CC(O)C(O)[C@H]1CNc2nc(N)[nH]c(=O)c2N1 (stereo partly drawn) [(6R)-5,6,7,8-tetrahydro-L-Biopterin (hydrochloride)]", "System Tested": "Danio rerio larvae (5 dpf)", "Label Class": "False"}
{"Compound": "NCCS [Cysteamine (hydrochloride)]", "System Tested": "Danio rerio larvae (5 dpf)", "Label Class": "False"}
{"Compound": "Cc1cc(C(C)(C)C)c(O)c(C)c1CC1=NCCN1 [Oxymetazoline (hydrochloride)]", "System Tested": "Danio rerio larvae (5 dpf)", "Label Class": "False"}
{"Compound": "C[C@H](Cc1cc2c(c(C(N)=O)c1)N(CCCO)CC2)NCCOc1ccccc1OCC(F)(F)F", "System Tested": "Danio rerio larvae (5 dpf)", "Label Class": "True"}
{"Compound": "COc1ccccc1OCC(O)CO (stereo not given)", "System Tested": "Danio rerio larvae (5 dpf)", "Label Class": "False"}
{"Compound": "CC1=C(C(=O)O)N2C(=O)[C@@H](NC(=O)[C@H](N)c3ccc(O)cc3)[C@H]2SC1 [Cefadroxil (hydrate)]", "System Tested": "Danio rerio larvae (5 dpf)", "Label Class": "False"}
